Source: ChEMBL document CHEMBL1201862

- System: A549
- assay name: NCI tumour cell line growth inhibition, 48 h
Activity calls are given as the source filed them. No stated cut-off is given here; in the data, active = GI50 up to about 1.1 µM and inactive = higher.
Possible outcomes: y for active, n for inactive

compound=CNc1cc([N+](=O)[O-])ccc1C(=O)N1CCC[C@H]1CO group_label=n
compound=CCOC(=O)/C=C(/N=P(c1ccccc1)(c1ccccc1)c1ccccc1)C(F)(F)F group_label=n
compound=CC1(C)COC(c2cccc(C3=NC(C)(C)CO3)c2)=N1 group_label=n
compound="COC(=O)[C@@H]1[C@H](OC(C)=O)CCC2[C@@]3(C[C@@H](c4ccoc4)O[C@@H]3OC)[C@H](C)CC[C@]21C(=O)OC (stereo partly specified)" group_label=n
compound=Cc1cc(Cl)ccc1C(=O)c1ccc2ccccc2c1C(=O)O group_label=n
compound=C/C(=N\NC(=[Se])N(C)C)c1ccccn1 group_label=y
